# MEASURED TARGET: Hep G2 cells (Homo sapiens)
# Sequence (P04035 whole entry): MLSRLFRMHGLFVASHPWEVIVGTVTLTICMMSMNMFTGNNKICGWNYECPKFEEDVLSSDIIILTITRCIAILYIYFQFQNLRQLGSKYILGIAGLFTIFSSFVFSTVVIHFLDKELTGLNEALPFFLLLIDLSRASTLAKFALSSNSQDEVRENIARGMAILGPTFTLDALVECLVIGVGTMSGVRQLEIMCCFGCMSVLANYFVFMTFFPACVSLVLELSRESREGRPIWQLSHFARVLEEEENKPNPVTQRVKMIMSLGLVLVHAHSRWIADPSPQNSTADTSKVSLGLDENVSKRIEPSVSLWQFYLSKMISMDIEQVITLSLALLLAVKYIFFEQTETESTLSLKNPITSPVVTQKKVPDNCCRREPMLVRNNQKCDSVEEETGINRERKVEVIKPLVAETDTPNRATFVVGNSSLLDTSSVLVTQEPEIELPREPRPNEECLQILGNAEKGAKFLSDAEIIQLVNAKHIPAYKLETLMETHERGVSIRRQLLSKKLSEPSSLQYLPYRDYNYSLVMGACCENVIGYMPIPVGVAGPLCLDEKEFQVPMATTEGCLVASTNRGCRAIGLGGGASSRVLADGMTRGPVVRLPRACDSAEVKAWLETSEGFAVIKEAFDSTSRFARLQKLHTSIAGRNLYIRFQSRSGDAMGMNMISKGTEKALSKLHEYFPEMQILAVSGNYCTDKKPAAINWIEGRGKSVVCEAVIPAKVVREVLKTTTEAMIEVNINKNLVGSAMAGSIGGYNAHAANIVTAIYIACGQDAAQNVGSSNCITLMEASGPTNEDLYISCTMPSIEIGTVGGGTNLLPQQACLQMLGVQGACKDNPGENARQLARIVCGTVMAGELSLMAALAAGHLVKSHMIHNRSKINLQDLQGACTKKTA
# MEASUREMENT NOTES: Test B-1: Inhibition of cholesterol biosynthesis in culture cells ([2-14C]sodium acetate added at 0 hr after addition of compounds)
# Type: cell-based
# CONDITION INFO: HepG2, concentration of 1.0 x 10⁻⁷ mol/ℓ, read-out: Inhibitory activities %
# Method: Hep G2 cells at over 5th passage were seeded to 12 well plates and incubated with Dulbecco's modified Eagle (DME) medium containing 10% of fetal bovine serum (FBS) at 37°C, 5% CO₂ until cells were confluent for about 7 days. Cells were exposed to the DME medium contaiing 5% of lipoprotein deficient serum (LpDS) prepared by ultracentrifugation method for over 24 hours. […] Nonsaponifiable lipids were extracted with petroleum ether and ¹⁴C radioactivity was counted. […]
RESULT TYPE: inhibition at 0.1 µM

// below: answered molecules
                                   molecule              measured_target           result_type  observed
0  CC(C)(C)n1nc(-c2ccccc2)c2c(-c3ccc(F)cc3)c(/C=C/C(O)CC(O)CC(=O)O)c(C3CC3)nc21 (stereo not drawn)  Hep G2 cells (Homo sapiens)  inhibition at 0.1 µM       36%
1  Cc1nn(C)c2nc(C3CC3)c(/C=C/C(O)CC(O)CC(=O)O)c(-c3ccc(F)cc3)c12 (stereo not drawn)  Hep G2 cells (Homo sapiens)  inhibition at 0.1 µM     78.2%
2  CC(C)c1nc2c(c(C3CC3)nn2C)c(-c2ccc(F)cc2)c1/C=C/C(O)CC(O)CC(=O)O (stereo not drawn)  Hep G2 cells (Homo sapiens)  inhibition at 0.1 µM     55.3%
3  CC(C)c1nc2c(cnn2-c2ccccc2)c(-c2ccc(F)cc2)c1/C=C/C(O)CC(O)CC(=O)O (stereo not drawn)  Hep G2 cells (Homo sapiens)  inhibition at 0.1 µM     53.3%

Prompt: Entry CC(C)c1nc2c(c(-c3ccc(Cl)cc3)nn2C)c(-c2ccc(F)cc2)c1/C=C/C(O)CC(O)CC(=O)O (stereo not drawn) has what inhibition at 0.1 µM?
Response: 58.8%

Prompt: Entry CC(C)c1nc2c(c(C3CC3)nn2-c2ccccc2)c(-c2ccc(F)cc2)c1/C=C/C(O)CC(O)CC(=O)O (stereo not drawn) has what inhibition at 0.1 µM?
Response: 47.3%

Prompt: Entry Cc1c2c(-c3ccc(F)cc3)c(/C=C/C(O)CC(O)CC(=O)O)c(C(C)C)nc2nn1-c1ccccc1 (stereo not drawn) has what inhibition at 0.1 µM?
Response: 36.3%

Prompt: Entry COc1ccc(-n2nc(C)c3c(-c4ccc(F)cc4)c(/C=C/C(O)CC(O)CC(=O)O)c(C(C)C)nc32)cc1 (stereo not drawn) has what inhibition at 0.1 µM?
Response: 55.5%

Prompt: Entry CC(C)(C)n1nc(C2CC2)c2c(-c3ccc(F)cc3)c(/C=C/C(O)CC(O)CC(=O)O)c(C3CC3)nc21 (stereo not drawn) has what inhibition at 0.1 µM?
Response: 49%

Value source: patent EP0339358B1
